system: Trypanosoma cruzi; test: Antitrypanosomal activity against nifurtimox-sensitive Trypanosoma cruzi Tulahuen CL2 infected in human MRC-5 SV2 cells assessed as inhibition of parasite growth measured after 7 days by spectrophotometric analysis; type: functional, organism-based; conditions: Tulahuen CL2, MRC-5 SV2, 168 h
measurementName: pIC50
The read-out pIC50 is expressed as -log10 of concentration in moles per litre.

Query block: Record request: pIC50 value, item Nc1ncnc2c1c(-c1ccccc1)nn2[C@@H]1O[C@H](CO)[C@@H](O)[C@H]1O
Result block: 4.88

Query block: Also need COc1ccc(-c2nn([C@@H]3O[C@H](CO)[C@@H](O)[C@H]3O)c3ncnc(N)c23)cc1 , thanks.
Result block: 4.74

Query block: Also need Nc1ncnc2c1c(Br)nn2[C@@H]1O[C@H](CO)[C@@H](F)[C@H]1O , thanks.
Result block: 5.97

Query block: Also need N#Cc1nn([C@@H]2O[C@H](CO)[C@@H](O)[C@H]2O)c2ncnc(N)c12 , thanks.
Result block: 6.02

Query block: Also need Nc1ncnc2c1c(C#Cc1ccccc1)nn2[C@@H]1O[C@H](CO)[C@@H](O)[C@H]1O , thanks.
Result block: 4.53

Query block: Also need Nc1ncnc2c1c(-c1ccc(F)c(F)c1)nn2[C@@H]1O[C@H](CO)[C@@H](O)[C@H]1O , thanks.
Result block: 5.37

Query block: Also need Nc1ncnc2c1c(N)nn2[C@@H]1O[C@H](CO)[C@@H](O)[C@H]1O , thanks.
Result block: 5.12

Query block: Also need Cn1cc(-c2nn([C@@H]3O[C@H](CO)[C@@H](O)[C@H]3O)c3ncnc(N)c23)cn1 , thanks.
Result block: 4.34

Query block: Also need Nc1ncnc2c1c(-c1ccc(Cl)c(Cl)c1)nn2[C@@H]1O[C@H](CO)[C@@H](O)[C@H]1O , thanks.
Result block: 5.55

Query block: Also need Nc1ncnc2c1c(-c1ccc(Cl)c(C(F)(F)F)c1)nn2[C@@H]1O[C@H](CO)[C@@H](O)[C@H]1O , thanks.
Result block: 4.36

Query block: Also need Cc1cc(-c2nn([C@@H]3O[C@H](CO)[C@@H](O)[C@H]3O)c3ncnc(N)c23)ccc1Cl , thanks.
Result block: 6.09

Query block: Also need Nc1ncnc2c1c(Br)nn2[C@@H]1O[C@H](CO)[C@@H](O)[C@H]1O , thanks.
Result block: 5.36

Query block: Also need Nc1ncnc2c1c(CCc1ccccc1)nn2[C@@H]1O[C@H](CO)[C@@H](O)[C@H]1O , thanks.
Result block: 4.28

Query block: Also need CCOc1cc(-c2nn([C@@H]3O[C@H](CO)[C@@H](O)[C@H]3O)c3ncnc(N)c23)ccc1Cl , thanks.
Result block: 4.34

Query block: Also need Nc1ncnc2c1c(-c1ccccn1)nn2[C@@H]1O[C@H](CO)[C@@H](O)[C@H]1O , thanks.
Result block: 4.52

Query block: Also need Cc1cc(Cl)ccc1-c1nn([C@@H]2O[C@H](CO)[C@@H](O)[C@H]2O)c2ncnc(N)c12 , thanks.
Result block: 5.42

Query block: Also need Cc1ccc(-c2nn([C@@H]3O[C@H](CO)[C@@H](O)[C@H]3O)c3ncnc(N)c23)s1 , thanks.
Result block: 5.15

Query block: Also need Cc1csc(-c2nn([C@@H]3O[C@H](CO)[C@@H](O)[C@H]3O)c3ncnc(N)c23)c1 , thanks.
Result block: 4.49

Query block: Also need Oc1ncnc2[nH]ncc12 , thanks.
Result block: 5.01

Query block: Also need Nc1ncnc2c1c(-c1c[nH]nn1)nn2[C@@H]1O[C@H](CO)[C@@H](O)[C@H]1O , thanks.
Result block: 6.37

Query block: Also need Nc1ncnc2c1c(-c1ccncc1)nn2[C@@H]1O[C@H](CO)[C@@H](O)[C@H]1O , thanks.
Result block: 4.67

Query block: Also need Nc1ncnc2c1c(-c1ccc([N+](=O)[O-])cc1)nn2[C@@H]1O[C@H](CO)[C@@H](O)[C@H]1O , thanks.
Result block: 4.99

Query block: Also need Nc1ncnc2c1c(-c1ccc(C(F)(F)F)cc1)nn2[C@@H]1O[C@H](CO)[C@@H](O)[C@H]1O , thanks.
Result block: 5.20

Query block: Also need Nc1ncnc2[nH]ncc12 , thanks.
Result block: 6.24
